# system.under.test: Serine/threonine-protein kinase pim-2 (Homo sapiens) (UniProt Q9P1W9);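 note: reported value is the mean percent inhibition of PIM2, measured in the GSK PKIS kinase inhibitor set screen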
# Sequence (Q9P1W9 whole entry, looked up): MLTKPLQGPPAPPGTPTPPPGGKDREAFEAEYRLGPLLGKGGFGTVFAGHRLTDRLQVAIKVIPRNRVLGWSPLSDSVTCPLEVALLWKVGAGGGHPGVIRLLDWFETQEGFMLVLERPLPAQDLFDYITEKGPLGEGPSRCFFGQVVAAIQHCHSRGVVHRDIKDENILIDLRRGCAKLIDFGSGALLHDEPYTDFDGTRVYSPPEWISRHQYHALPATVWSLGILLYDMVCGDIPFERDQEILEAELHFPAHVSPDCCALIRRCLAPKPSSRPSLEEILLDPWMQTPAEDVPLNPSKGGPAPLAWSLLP
# condition.context: at 0.1 µM
assay.metric: inhibition (%)
Your answer is read as %, so omit the unit and give the number.

# example entries with known answers
compound	assay.metric	numeric.value
O=C(O[C@H]1CN[C@H](C#Cc2cc3ncnc(Nc4ccc(OCc5cccc(F)c5)c(Cl)c4)c3s2)C1)N1CCOCC1	inhibition	-0.36
NC(=O)c1ccc2c(-c3ccnc(NCCCO)n3)c(-c3ccc(F)cc3)nn2c1	inhibition	-0.18
CN1CCC(n2cnc(-c3ccc(F)cc3)c2-c2ccnc(NCCO)n2)CC1	inhibition	0.95
CCS(=O)(=O)c1ccc(OC)c(Nc2ncc(-c3cccc(C(C)=O)c3)o2)c1	inhibition	-0.72
COC(=O)Nc1nc2ccc(Oc3ccc(NC(=O)Nc4cc(C(F)(F)F)ccc4F)cc3)cc2s1	inhibition	-0.21

Prompt: Which measured inhibition value corresponds to CS(=O)(=O)CCNCc1ccc(-c2ccc3ncnc(Nc4ccc(OCc5cccc(C(F)(F)F)c5)cc4)c3c2)o1 ?
Response: -0.68

Prompt: Now consider CCn1c(-c2nonc2N)nc2cncc(C(=O)NCCNC)c21 .
Response: 1.81

Prompt: Now consider NS(=O)(=O)c1cccc(N/C=C2\C(=O)Nc3ccccc32)c1 .
Response: -0.33

Prompt: Now consider O=C(O[C@H]1CN[C@H](C#Cc2cc3ncnc(Nc4ccc5c(cnn5Cc5ccccc5)c4)c3s2)C1)N1CCOCC1 .
Response: -0.43

Prompt: Now consider CNC(=O)c1cncc(/C=C/c2ccccc2C)c1 .
Response: 0.15

* * *

# system.under.test: Calcium/calmodulin-dependent protein kinase type II subunit alpha (Homo sapiens);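 note: reported values are averages (mean inhibition of CAMK2A)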
# condition.context: at 0.1 µM
assay.metric: inhibition
// return the numeric value with its unit appended

# example entries with known answers
O=C(O[C@H]1CN[C@H](C#Cc2cc3ncnc(Nc4ccc5c(cnn5Cc5ccccc5)c4)c3s2)C1)N1CCOCC1 -0.77%
CCOc1ccc2c(-c3ccnc(Nc4cc(OC)cc(C(F)(F)F)c4)n3)cnn2n1 -1.52%
FC(F)(F)CNc1nccc(-c2cnn3ncccc23)n1 0.49%
O=C(O[C@H]1CN[C@H](C#Cc2cc3ncnc(Nc4ccc(OCc5cccc(F)c5)c(Cl)c4)c3s2)C1)N1CCOCC1 2.9%
CS(=O)(=O)CCNCc1ccc(-c2ccc3ncnc(Nc4ccc(OCc5ccccc5)cc4)c3c2)o1 2.27%

Prompt: Which measured inhibition value corresponds to OCCCNc1nccc(-c2c(-c3ccc(F)cc3)nn3cc(C(F)(F)F)ccc23)n1 ?
Response: 2.38%

Prompt: Now consider CN(C)CCNC(=O)Nc1ccc(N(C)c2ccnc(Nc3ccc(CS(C)(=O)=O)cc3)n2)cc1 .
Response: 4.92%

Prompt: Now consider Cc1ccc(-c2cc3c(NC(=O)C4CC4)ncnc3o2)cc1 .
Response: 4.04%

Prompt: Now consider CNC(=O)c1ncccc1Nc1nc(Nc2cc3c(cc2OC)CCCN3C(=O)CN(C)C)nc2[nH]ccc12 .
Response: 4.09%

Prompt: Now consider c1cnn2ncc(-c3ccnc(NCCCN4CCOCC4)n3)c2c1 .
Response: 2.86%

Prompt: Now consider COc1ccccc1-c1cc(/C=C2\C(=O)Nc3ncc(Br)cc32)cc(Br)c1O .
Response: 4.16%

Prompt: Now consider CS(=O)(=O)Nc1ccc(-c2ccc3c(NC(=O)C4CC4)n[nH]c3c2)cc1 .
Response: 4.36%

Prompt: Now consider N#Cc1cccc(Nc2ncc(-c3ccccc3)o2)c1 .
Response: 1.87%

Prompt: Now consider CS(=O)(=O)Nc1ccc(-c2cc(-c3ccccc3)cc(C(N)=O)c2N)cc1 .
Response: -1.51%

* * *

# system.under.test: Serine/threonine-protein kinase MRCK beta (Homo sapiens);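 note: values are mean percent inhibition of MRCKB, screened as part of the GSK PKIS kinase inhibitor set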
# condition.context: at 0.1 µM
Item-by-item account of inhibition
Your answer is read as %, so omit the unit and give the number.

# example entries with known answers
CN(c1ccc(NC(=O)NCCN2CCOCC2)cc1)c1ccnc(Nc2ccc(CS(C)(=O)=O)cc2)n1 0.01
COc1cccc(-n2ncc3c(N/N=C/c4ccc(C(=O)NCCN(C)C)cc4)ncnc32)c1 2.49

Prompt: Which measured inhibition value corresponds to CNC(=O)c1ncccc1Nc1nc(Nc2cc3c(cc2OC)CCCN3C(=O)CN(C)C)nc2[nH]ccc12 ?
Response: 1.2

Prompt: Now consider CNC(=O)c1cncc(/C=C/c2ccccc2C)c1 .
Response: -0.34

Prompt: Now consider N#Cc1cccc(Nc2ncc(-c3ccccc3)o2)c1 .
Response: -1.64

Prompt: Now consider O=C(Nc1n[nH]c2nnc(-c3cccnc3)cc12)C1CC1 .
Response: 0.62

* * *

# Test system: Epidermal growth factor receptor (Homo sapiens), P00533 [L858R]
# Sequence (P00533 whole entry L858R): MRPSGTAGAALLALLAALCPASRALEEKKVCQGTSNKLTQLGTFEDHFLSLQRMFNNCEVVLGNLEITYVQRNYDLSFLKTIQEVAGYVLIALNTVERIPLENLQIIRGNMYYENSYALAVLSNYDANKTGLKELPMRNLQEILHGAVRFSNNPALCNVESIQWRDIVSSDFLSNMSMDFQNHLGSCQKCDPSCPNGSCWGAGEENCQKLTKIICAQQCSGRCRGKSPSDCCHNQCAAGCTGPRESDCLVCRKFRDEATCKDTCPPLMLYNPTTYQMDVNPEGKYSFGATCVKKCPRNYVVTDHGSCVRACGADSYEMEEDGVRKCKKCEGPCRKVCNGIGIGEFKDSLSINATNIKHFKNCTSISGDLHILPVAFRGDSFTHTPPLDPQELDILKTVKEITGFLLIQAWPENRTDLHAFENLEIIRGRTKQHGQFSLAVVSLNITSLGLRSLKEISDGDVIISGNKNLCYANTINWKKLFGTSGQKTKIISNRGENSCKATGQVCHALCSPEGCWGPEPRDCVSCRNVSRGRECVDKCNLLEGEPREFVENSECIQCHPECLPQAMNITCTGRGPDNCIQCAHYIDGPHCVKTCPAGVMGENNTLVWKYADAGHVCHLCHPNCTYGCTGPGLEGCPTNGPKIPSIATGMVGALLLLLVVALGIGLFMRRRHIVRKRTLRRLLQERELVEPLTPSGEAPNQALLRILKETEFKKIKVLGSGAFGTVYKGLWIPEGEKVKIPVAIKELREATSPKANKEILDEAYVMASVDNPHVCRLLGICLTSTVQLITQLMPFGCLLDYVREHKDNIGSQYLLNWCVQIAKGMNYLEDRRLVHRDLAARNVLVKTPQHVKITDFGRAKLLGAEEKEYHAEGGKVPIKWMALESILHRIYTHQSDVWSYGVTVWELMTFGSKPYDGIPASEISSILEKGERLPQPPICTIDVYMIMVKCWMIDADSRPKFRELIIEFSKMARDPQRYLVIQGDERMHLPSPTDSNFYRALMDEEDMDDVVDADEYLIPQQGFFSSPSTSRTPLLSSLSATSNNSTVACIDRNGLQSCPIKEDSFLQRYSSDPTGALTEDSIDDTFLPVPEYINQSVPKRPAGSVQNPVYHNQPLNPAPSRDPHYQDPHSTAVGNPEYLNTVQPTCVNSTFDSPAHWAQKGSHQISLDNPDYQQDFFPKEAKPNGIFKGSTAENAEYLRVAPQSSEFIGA
# condition.context: at 0.1 µM
assay.metric: inhibition (%)
Your answer is read as %, so omit the unit and give the number.

# example entries with known answers
molecule	numeric.value
COC(=O)Nc1nc2cc(Oc3ccc(NC(=O)Nc4ccccc4)cc3)ccc2[nH]1	0.78
Cc1ccc(-c2cc3c(NC(=O)C4CC4)ncnc3o2)cc1	3.53

Prompt: Which measured inhibition value corresponds to O=C(Nc1n[nH]c2nnc(-c3cccnc3)cc12)C1CC1 ?
Response: -2.25

* * *

Item-by-item account of inhibition
# system.under.test: Homeodomain-interacting protein kinase 4 (Homo sapiens);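 note: values are mean percent inhibition of HIPK4 from the GSK PKIS kinase screen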
# condition.context: at 1 µM

COC(=O)Nc1nc2ccc(Oc3ccc(NC(=O)Nc4cc(C(F)(F)F)ccc4F)cc3)cc2s1 33.5%
c1ccc(-c2n[nH]cc2-c2ccnc(-c3ccc(OCCn4ccnc4)cc3)c2)nc1 2.03%
COc1ccc2ncn(-c3cc(O[C@H](C)c4ccccc4C(F)(F)F)c(C(N)=O)s3)c2c1 3.28%
CC1(C)CC(n2cnc(-c3ccc(F)cc3)c2-c2ccnc(N)n2)CC(C)(C)N1 1.62%
NS(=O)(=O)c1ccc(N/N=C2\C(=O)Nc3ccc(C(=O)NCc4ccncc4)cc32)cc1 45.9%
O=C(Nc1n[nH]c2nnc(-c3cccnc3)cc12)C1CC1 8.84%

Prompt: Which measured inhibition value corresponds to CCn1c(-c2nonc2N)nc2cncc(C(=O)NCCNC)c21 ?
Response: 3.11%

Prompt: Now consider O=C(O[C@H]1CN[C@H](C#Cc2cc3ncnc(Nc4ccc5c(ccn5Cc5cc(F)ccc5F)c4)c3s2)C1)N1CCOCC1 .
Response: 2.6%

Prompt: Now consider Cc1nnc(-c2cccc(-c3ccc(C(=O)NCC4CC4)cc3)c2)o1 .
Response: -0.47%

Prompt: Now consider N#Cc1ccc2c(-c3ccnc(NC4CC4)n3)c(-c3ccc(F)cc3)nn2c1 .
Response: -1.01%

* * *

# system.under.test: MAP kinase-activated protein kinase 2 (Homo sapiens);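 note: values are mean inhibition from the GSK PKIS screen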
# condition.context: at 1 µM
assay.metric: inhibition (%)
Your answer is read as %, so omit the unit and give the number.

# example entries with known answers
O=C(O[C@H]1CN[C@H](C#Cc2cc3ncnc(Nc4ccc5c(ccn5Cc5cc(F)ccc5F)c4)c3s2)C1)N1CCOCC1 -1.2
CS(=O)(=O)Nc1ccc(-c2cc(-c3ccccc3)cc(C(N)=O)c2N)cc1 1.42
CNC(=O)c1cncc(/C=C/c2ccccc2C)c1 2.51
CC(C)c1ccc(-c2cc(-c3c[nH]nc3-c3ccccn3)ccn2)cc1 -0.11

From here, focus on the item given below.
Prompt: Which measured inhibition value corresponds to CNC(=O)c1sc(-n2cnc3cc(OC)c(OC)cc32)cc1OCc1ccccc1C(F)(F)F ?
Response: 1.2

* * *

Item-by-item account of inhibition
# system.under.test: Calcium/calmodulin-dependent protein kinase type II subunit delta (Homo sapiens) (UniProt Q13557);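 note: percent inhibition values are means, taken from the GSK PKIS kinase profiling set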
# Sequence (Q13557 whole entry): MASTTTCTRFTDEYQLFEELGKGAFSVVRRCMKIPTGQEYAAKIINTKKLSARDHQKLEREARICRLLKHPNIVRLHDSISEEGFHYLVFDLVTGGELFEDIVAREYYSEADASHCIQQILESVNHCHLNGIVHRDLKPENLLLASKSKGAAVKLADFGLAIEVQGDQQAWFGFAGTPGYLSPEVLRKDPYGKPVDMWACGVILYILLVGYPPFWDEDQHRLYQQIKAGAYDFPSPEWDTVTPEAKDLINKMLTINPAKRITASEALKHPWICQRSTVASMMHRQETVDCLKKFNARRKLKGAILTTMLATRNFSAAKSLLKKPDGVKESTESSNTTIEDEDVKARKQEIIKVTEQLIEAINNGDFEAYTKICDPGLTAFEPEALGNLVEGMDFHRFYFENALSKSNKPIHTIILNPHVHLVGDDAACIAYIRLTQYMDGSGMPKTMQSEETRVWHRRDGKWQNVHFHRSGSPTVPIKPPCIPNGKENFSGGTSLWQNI
# condition.context: at 0.1 µM
Your answer is read as %, so omit the unit and give the number.

Prompt: Which measured inhibition value corresponds to CC1(C)CC(n2cnc(-c3ccc(F)cc3)c2-c2ccnc(N)n2)CC(C)(C)N1 ?
Response: 0.69

* * *

# system.under.test: Serine/threonine-protein kinase Nek7 (Homo sapiens);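 note: reported values are mean inhibition of NEK7 from the GSK PKIS kinase screening panel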
# condition.context: at 1 µM
assay.metric: inhibition
// return the numeric value with its unit appended

# example entries with known answers
CS(=O)(=O)Nc1ccc(-c2ccc3c(NC(=O)C4CC4)n[nH]c3c2)cc1 2.55%
Cc1c2ccc(N(C)c3ccnc(Nc4cccc(S(N)(=O)=O)c4)n3)cc2nn1C 3.13%
CS(=O)(=O)Nc1ccc(-c2cc(-c3ccccc3)cc(C(N)=O)c2N)cc1 6.39%
CS(=O)(=O)CCNCc1ccc(-c2ccc3ncnc(Nc4ccc(OCc5cccc(C(F)(F)F)c5)cc4)c3c2)o1 7.52%
CNC(=O)c1ncccc1Nc1nc(Nc2cc3c(cc2OC)CCCN3C(=O)CN(C)C)nc2[nH]ccc12 7.42%
c1cnn2ncc(-c3ccnc(NCCCN4CCOCC4)n3)c2c1 1.47%

Prompt: Which measured inhibition value corresponds to CNC(=O)c1sc(-n2cnc3cc(OC)c(OC)cc32)cc1OCc1ccccc1C(F)(F)F ?
Response: -2.15%

Prompt: Now consider Cc1nnc(-c2cccc(-c3ccc(C(=O)NCC4CC4)cc3)c2)o1 .
Response: 4.11%

Prompt: Now consider O=C(O[C@H]1CN[C@H](C#Cc2cc3ncnc(Nc4ccc5c(cnn5Cc5ccccc5)c4)c3s2)C1)N1CCOCC1 .
Response: 1.45%
